This collection of values is drawn from patent US20110250130A1.

The entries below are paired with their reported pKd.
# target: T1, Recombinant Human TNF-α/TNFSF1A (human, UniProt P01375 77-233)
# T1 construct: Bought reagent (R&D Systems 210-TA); also called hTNF-α; huTNF-α
# T1 sequence (P01375 77-233 limits assumed): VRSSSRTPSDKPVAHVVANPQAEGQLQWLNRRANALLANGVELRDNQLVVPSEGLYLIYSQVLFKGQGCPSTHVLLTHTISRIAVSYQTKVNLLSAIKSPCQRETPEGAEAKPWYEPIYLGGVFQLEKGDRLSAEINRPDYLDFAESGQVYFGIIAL
# assay.comment: SPR (Biacore), antibody captured, TNF-α in solution
pKd here is simply -log10 of the concentration when that concentration is written in mol/L.

| binder | value.measured |
| --- | --- |
| AB263 (antibody, V domains shown, also called hMAK195VH.2b / hMAK195VL.2a) VH: EVQLVESGGGLVQPGGSLRLSCAASGFTLSDYGVNWVRQAPGKGLEWVSMIWGDGSTDYDSTLKSRFTISKDNSKNTLYLQMNSLRAEDTAVYYCAREWHHGPVAYWGQGTLVTVSS VL: EIVMTQSPATLSLSPGERATLSCKASQAVSSAVAWYQQKPGQSPRLLIYWASTRHTGVPARFSGSGSGTDFTLTISSLQPEDFAVYYCQQHYSTPFTFGQGTKLEIK | 9.77 |
| AB256 (antibody, V domains shown, also called hMAK195VH.2a / hMAK195VL.1) VH: EVQLVESGGGLVQPGGSLRLSCAVSGFTLSDYGVNWVRQAPGKGLEWLGMIWGDGSTDYDSTLKSRLTISKDNSKSTIYLQMNSLRAEDTAVYYCAREWHHGPVAYWGQGTLVTVSS VL: DIQMTQSPSSLSASVGDRVTITCKASQAVSSAVAWYQQKPGKAPKLLIYWASTRHTGVPSRFSGSGSGTDFTLTISSLQPEDFATYYCQQHYSTPFTFGQGTKLEIK | 10.30 |
| AB260 (antibody, V domains shown, also called hMAK195VH.2b / hMAK195VL.1) VH: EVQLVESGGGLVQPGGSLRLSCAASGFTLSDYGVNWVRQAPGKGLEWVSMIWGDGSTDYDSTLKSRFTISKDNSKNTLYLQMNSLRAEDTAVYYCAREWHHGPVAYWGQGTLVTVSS VL: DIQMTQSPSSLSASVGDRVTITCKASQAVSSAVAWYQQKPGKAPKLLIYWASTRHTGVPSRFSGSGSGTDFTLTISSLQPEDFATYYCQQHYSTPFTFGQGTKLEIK | 10.00 |
| AB251 (antibody, V domains shown, also called hMAK195VH.1b / hMAK195VL.2a) VH: EVQLQESGPGLVKPSETLSLTCTVSGFSLSDYGVNWIRQPPGKGLEWIGMIWGDGSTDYDSTLKSRVTISKDTSKNQFSLKLSSVTAADTAVYYCAREWHHGPVAYWGQGTLVTVSS VL: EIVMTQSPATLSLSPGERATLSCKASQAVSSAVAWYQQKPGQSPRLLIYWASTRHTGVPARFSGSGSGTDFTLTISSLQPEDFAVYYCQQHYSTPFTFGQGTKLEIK | 9.60 |

Data point: AB246 (antibody, V domains shown, also called hMAK195VH.1a / hMAK195VL.2) VH: EVQLQESGPGLVKPSETLSLTCTVSGFSLSDYGVNWVRQPPGKGLEWLGMIWGDGSTDYDSTLKSRLTISKDNSKSQISLKLSSVTAADTAVYYCAREWHHGPVAYWGQGTLVTVSS VL: EIVMTQSPATLSLSPGERATLSCKASQAVSSAVAWYQQKPGQAPRLLIYWASTRHTGIPARFSGSGSGTDFTLTISSLQPEDFAVYYCQQHYSTPFTFGQGTKLEIK ; pKd = 10.34
